The entries below come with measured pIC50 values attached.
# Experimental target: NLRP3 inflammasome (Homo sapiens, UniProt Q96P20)
# Construct: host or cells: THP-1 cells
# Sequence (Q96P20 whole entry): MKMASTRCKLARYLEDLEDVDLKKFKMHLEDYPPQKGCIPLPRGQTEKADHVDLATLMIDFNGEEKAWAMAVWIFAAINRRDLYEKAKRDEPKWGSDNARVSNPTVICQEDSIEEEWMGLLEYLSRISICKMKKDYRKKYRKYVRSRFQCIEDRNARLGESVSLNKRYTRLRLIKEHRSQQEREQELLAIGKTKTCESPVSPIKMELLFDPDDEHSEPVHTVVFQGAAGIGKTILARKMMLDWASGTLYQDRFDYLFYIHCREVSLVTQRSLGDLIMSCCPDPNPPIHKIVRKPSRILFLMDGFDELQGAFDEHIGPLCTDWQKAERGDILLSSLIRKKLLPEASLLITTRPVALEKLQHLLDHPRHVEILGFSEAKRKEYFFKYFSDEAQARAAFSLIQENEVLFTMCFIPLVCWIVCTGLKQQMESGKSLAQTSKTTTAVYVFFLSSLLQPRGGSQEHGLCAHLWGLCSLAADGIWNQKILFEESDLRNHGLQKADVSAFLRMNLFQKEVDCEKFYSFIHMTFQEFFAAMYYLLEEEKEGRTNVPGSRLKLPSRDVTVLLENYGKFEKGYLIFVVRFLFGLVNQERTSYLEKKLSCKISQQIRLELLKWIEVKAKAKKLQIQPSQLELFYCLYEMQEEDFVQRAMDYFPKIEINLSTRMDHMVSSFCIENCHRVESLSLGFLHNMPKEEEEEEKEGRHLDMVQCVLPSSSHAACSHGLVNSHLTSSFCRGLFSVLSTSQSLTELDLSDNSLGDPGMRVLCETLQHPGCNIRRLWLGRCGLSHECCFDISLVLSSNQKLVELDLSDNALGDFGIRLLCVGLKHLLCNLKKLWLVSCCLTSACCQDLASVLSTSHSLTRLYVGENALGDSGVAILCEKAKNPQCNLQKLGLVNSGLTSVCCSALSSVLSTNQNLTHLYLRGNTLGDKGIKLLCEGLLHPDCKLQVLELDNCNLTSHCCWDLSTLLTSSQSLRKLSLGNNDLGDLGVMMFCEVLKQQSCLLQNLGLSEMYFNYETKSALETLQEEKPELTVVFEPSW
# Assay name: Inhibitory activity of NLRP3 inflammasome in human monocytes (THP-1 cells, LPS + Nigericin, IL-1β ELISA)
# Type: cell-based
# Details: read-out: IC50
pIC50: −log10 of the molar value.
Readout type: pIC50

[[record]]
substance_smiles = "Cn1c(-c2ccc3c(c2O)CCC3=C(F)F)nnc(N[C@@H]2CCCN(C3CC(F)(F)C3)C2)c1=O"
experimental_target = "NLRP3 inflammasome (Homo sapiens, UniProt Q96P20)"
readout_type = "pIC50"
measured = 7.49

[[record]]
substance_smiles = "CC#Cc1ccc(-c2nnc(N[C@@H]3CCCN(CC)C3)c(=O)n2C)c(O)c1"
experimental_target = "NLRP3 inflammasome (Homo sapiens, UniProt Q96P20)"
readout_type = "pIC50"
measured = 7.53

[[record]]
substance_smiles = "C[C@H]1CC[C@@H](Nc2nnc(-c3ccc4sccc4c3O)n(C)c2=O)CN1C"
experimental_target = "NLRP3 inflammasome (Homo sapiens, UniProt Q96P20)"
readout_type = "pIC50"
measured = 6.46

[[record]]
substance_smiles = "Cn1c(-c2ccc3ccccc3c2O)nnc(N[C@@H]2CCCC[C@H]2O)c1=O"
experimental_target = "NLRP3 inflammasome (Homo sapiens, UniProt Q96P20)"
readout_type = "pIC50"
measured = 7.90

[[record]]
substance_smiles = "CN1CCC[C@@H](Nc2nnc(-c3ccc(C#CC4CC4)cc3O)n(C)c2=O)C1"
experimental_target = "NLRP3 inflammasome (Homo sapiens, UniProt Q96P20)"
readout_type = "pIC50"
measured = 7.10

[[record]]
substance_smiles = "CN1CCC[C@@H](Nc2nnc(-c3ccc4ccccc4c3O)n(C)c2=O)C1"
experimental_target = "NLRP3 inflammasome (Homo sapiens, UniProt Q96P20)"
readout_type = "pIC50"
measured = 7.60

[[record]]
substance_smiles = "CN1CCC[C@@H](Nc2nnc(-c3ccc4sccc4c3OC(F)F)n(C)c2=O)C1"
experimental_target = "NLRP3 inflammasome (Homo sapiens, UniProt Q96P20)"
readout_type = "pIC50"
measured = 6.59

[[record]]
substance_smiles = "CCN1CCC[C@@H](Nc2nnc(-c3ccc(C4CC4)cc3O)n(C)c2=O)C1"
experimental_target = "NLRP3 inflammasome (Homo sapiens, UniProt Q96P20)"
readout_type = "pIC50"
measured = 8.19

[[record]]
substance_smiles = "[2H]C([2H])([2H])C([2H])([2H])N1CCC[C@@H](Nc2nnc(-c3ccc4c(c3O)CCC4=C(F)F)n(C)c2=O)C1"
experimental_target = "NLRP3 inflammasome (Homo sapiens, UniProt Q96P20)"
readout_type = "pIC50"
measured = 8.84

[[record]]
substance_smiles = "CCN1CCC[C@@H](Nc2nnc(-c3ccc4sccc4c3O)n(C3CC3)c2=O)C1"
experimental_target = "NLRP3 inflammasome (Homo sapiens, UniProt Q96P20)"
readout_type = "pIC50"
measured = 8.59

[[record]]
substance_smiles = "C[C@@H]1[C@H](Nc2nnc(-c3ccc4sccc4c3O)n(C)c2=O)CCCN1C"
experimental_target = "NLRP3 inflammasome (Homo sapiens, UniProt Q96P20)"
readout_type = "pIC50"
measured = 8.09

[[record]]
substance_smiles = "CC#Cc1ccc(-c2nnc(N[C@@H]3CCCC[C@H]3O)c(=O)n2C)c(O)c1"
experimental_target = "NLRP3 inflammasome (Homo sapiens, UniProt Q96P20)"
readout_type = "pIC50"
measured = 8.07

[[record]]
substance_smiles = "Cn1c(-c2ccc3c(c2O)CCC3=C(F)F)nnc(N[C@@H]2CCCN(CCO)C2)c1=O"
experimental_target = "NLRP3 inflammasome (Homo sapiens, UniProt Q96P20)"
readout_type = "pIC50"
measured = 8.37

[[record]]
substance_smiles = "CCN1CCC[C@@H](Nc2nnc(-c3ccc4ccccc4c3O)n(C)c2=O)C1"
experimental_target = "NLRP3 inflammasome (Homo sapiens, UniProt Q96P20)"
readout_type = "pIC50"
measured = 7.72

[[record]]
substance_smiles = "CN1CCC[C@@H](Nc2nnc(-c3ccc(-c4ncccn4)cc3O)n(C)c2=O)C1"
experimental_target = "NLRP3 inflammasome (Homo sapiens, UniProt Q96P20)"
readout_type = "pIC50"
measured = 6.35

[[record]]
substance_smiles = "CCN1CCC[C@@H](Nc2nnc(-c3ccc(C#CC4CC4)cc3O)n(C)c2=O)C1"
experimental_target = "NLRP3 inflammasome (Homo sapiens, UniProt Q96P20)"
readout_type = "pIC50"
measured = 6.46

[[record]]
substance_smiles = "Cn1c(-c2ccc3ccccc3c2O)nnc(N[C@@H]2CCCN(CCO)C2)c1=O"
experimental_target = "NLRP3 inflammasome (Homo sapiens, UniProt Q96P20)"
readout_type = "pIC50"
measured = 7.46

